viability, T/C: recorded values
Test system: 695427-040-R-J1-PDC complex spheroid viability;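 also: viability read after seven days of drug exposure; 100% = DMSO vehicle control viability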
method_notes: Anticancer human tumor 695427-040-R-J1-PDC patient-derived colon adenocarcinoma cell line growth inhibition [RAS]
setup_conditions: second compound 0.000949 µM; first compound 0.000949 µM; stronger effect = lower value
Please state the figure in %; there is no need to write the unit.

Please review the following examples before continuing.
>>> result("CC1(C)CCC(Nc2ncc(C(F)(F)F)c(-c3c[nH]c4c(P(C)(C)=O)c(C#N)ccc34)n2)CN1 (centres undefined) + CCn1c(-c2cccnc2C(C)OC)c2c3cc(ccc31)N1CCOC(CC(NC(=O)C(C(C)C)N(C)C(=O)C3(F)CCN(C(=O)C#CC(C)(C)N(C)C)CC3)C(=O)N3CCCC(N3)C(=O)OCC(C)(C)C2)C1")
85
>>> result("CC1(C)CCC(Nc2ncc(C(F)(F)F)c(-c3c[nH]c4c(P(C)(C)=O)c(C#N)ccc34)n2)CN1 (centres undefined) + CCn1c(-c2cc(N3CCN(C)CC3)cnc2C(C)OC)c2c3cc(ccc31)-c1csc(n1)CC(NC(=O)C1CC1C)C(=O)N1CCCC(N1)C(=O)OCC(C)(C)C2")
98

Return reported viability, T/C; argument: CCc1c2c(nc3ccc(O)cc13)-c1cc3c(c(=O)n1C2)COC(=O)[C@]3(O)CC + CCn1c(-c2cc(N3CCN(C)CC3)cnc2C(C)OC)c2c3cc(ccc31)-c1csc(n1)CC(NC(=O)C1CC1C)C(=O)N1CCCC(N1)C(=O)OCC(C)(C)C2
88.8

Return reported viability, T/C; argument: CCc1c2c(nc3ccc(O)cc13)-c1cc3c(c(=O)n1C2)COC(=O)[C@]3(O)CC + CCn1c(-c2cccnc2C(C)OC)c2c3cc(ccc31)N1CCOC(CC(NC(=O)C(C(C)C)N(C)C(=O)C3(F)CCN(C(=O)C#CC(C)(C)N(C)C)CC3)C(=O)N3CCCC(N3)C(=O)OCC(C)(C)C2)C1
97.1
